target: LXR β LBD protein (Homo sapiens (Human)); assay: biochemical; assay type: binding
Sequence (P55055 222-460 limits assumed): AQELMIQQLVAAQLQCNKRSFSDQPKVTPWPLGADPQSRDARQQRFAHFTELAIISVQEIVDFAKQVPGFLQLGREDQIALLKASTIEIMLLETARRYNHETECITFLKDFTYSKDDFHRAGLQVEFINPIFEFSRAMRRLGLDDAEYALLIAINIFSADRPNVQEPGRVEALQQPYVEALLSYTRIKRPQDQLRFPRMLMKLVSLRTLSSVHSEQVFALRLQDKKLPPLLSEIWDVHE
pKi: −log10 of the molar value.
# cutoff 7 applies to pKi; >= gives true, < gives false

C[C@H](c1ccc(C(F)(F)F)cc1)N1CCN(c2cccc(S(C)(=O)=O)c2)C[C@H]1c1ccccc1
false
CC(C)[C@@H]1CN(c2ccc(F)c(S(C)(=O)=O)c2)CCN1c1nccc(CO)n1
false
CC(C)(O)[C@H]1CCC[C@@H](CN2CCN(c3cccc(S(C)(=O)=O)c3)CC2c2ccccc2)C1 (stereo partly drawn)
false
CNS(=O)(=O)c1cc(N2CCN(c3ncc(C(C)=O)c(C(F)(F)F)n3)[C@H](C(C)C)C2)ccc1F
true
C[C@](O)(c1ccc(CN2CCN(c3cccc(S(C)(=O)=O)c3)C[C@@H]2c2ccccc2)cc1)C(F)(F)F (single isomer, unassigned)
false
C[C@@](O)(c1ccc(CN2CCN(c3cccc(S(C)(=O)=O)c3)C[C@@H]2c2ccccc2)cc1)C(F)(F)F
false
C[C@H](c1ccc(C(F)(F)F)cc1)N1CCN(c2cccc(S(C)(=O)=O)c2)C[C@@H]1c1ccccc1 (single isomer, unassigned)
true
CC(C)[C@@H]1CN(c2ccc(F)c(S(C)(=O)=O)c2)CCN1c1ncc([C@@H](C)O)c(C(F)(F)F)n1
true
CO[C@H](C)[C@@H]1CN(c2ccc(CO)c(S(C)(=O)=O)c2)CCN1c1ncc(CO)c(C(F)(F)F)n1 (single isomer, unassigned)
false
CC(C)[C@@H]1CN(c2ccc(F)c(S(C)(=O)=O)c2)CCN1c1ncc([C@H](C)O)c(C(F)(F)F)n1
true

## Task Textbook exercise: given the entry CC(=O)c1cnc(N2CCN(c3ccc(F)c(S(C)(=O)=O)c3)C[C@H]2C(C)C)nc1C(F)(F)F , state whether its pKi is greater than or equal to 7.
## Result true

## Task Next molecule up: CS(=O)(=O)c1cccc(N2CCN(C[C@@H]3CCC(C(F)(F)F)OC3)[C@@H](c3ccc(F)cc3)C2)c1 (single isomer, unassigned)
## Result false

## Task Next molecule up: CS(=O)(=O)c1cccc(N2CCN(C[C@H]3CCC(C(F)(F)F)OC3)[C@@H](c3ccc(F)cc3)C2)c1 (single isomer, unassigned)
## Result true
